Every entry's value here was drawn from the supplement of paper PMC10567573.

B1: ATL3 (parent)
chain: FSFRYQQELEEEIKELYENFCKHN

- Variants of: B1
- experiment_notes: protein stability index of a GFP-peptide fusion (GPS, HEK-293T) (PSI 1-6); higher = more stable;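 also: lentivirally expressed fusions sorted by FACS into six bins by GFP to DsRed ratio, PSI derived from sequencing read proportions per bin multiplied by bin number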
- assay_context: c terminus: a fixed tail appended

| entry_sequence | protein stability index |
| --- | --- |
| ESFRYQQELEEEIKELYENFCKHN [F1E] | 4.04 |
| FSFRYQQELEEEIKELYENFCYHN [K22Y] | 2.01 |
| FSFRYQQELEEEIKEQYENFCKHN [L16Q] | 4.14 |
| FSFRYQQELEEEIKELYENFCKHL [N24L] | 2.64 |
| FSFRYQQELEEEHKELYENFCKHN [I13H] | 2.82 |
| FSFRYQQELEEEIKELYENNCKHN [F20N] | 2.61 |
| FHFRYQQELEEEIKELYENFCKHN [S2H] | 2.29 |
| FSFRYQQELEEEIKELYLNFCKHN [E18L] | 1.55 |
| FSFRYQQELEEEIAELYENFCKHN [K14A] | 2.33 |
| FSFRYQQELAEEIKELYENFCKHN [E10A] | 2.02 |
| FSHRYQQELEEEIKELYENFCKHN [F3H] | 3.23 |
| FSFRYTQELEEEIKELYENFCKHN [Q6T] | 2.04 |
| FSFRYQQELGEEIKELYENFCKHN [E10G] | 1.9 |
| FSFRYQQELEEEIKELYENFWKHN [C21W] | 2.31 |
| FSFRYQQELEEEIKELYENFCKHH [N24H] | 2.64 |
| FSFRYQQELEEEIKELLENFCKHN [Y17L] | 2.36 |
| FSFRYQQELEEVIKELYENFCKHN [E12V] | 2.08 |
| FSFRTQQELEEEIKELYENFCKHN [Y5T] | 3.09 |
| FSFVYQQELEEEIKELYENFCKHN [R4V] | 2.36 |
| FSFRYQQELEEEIKELYENFCKHD [N24D] | 2.49 |
| FSFRYQQELQEEIKELYENFCKHN [E10Q] | 2 |
| FSFRYQQELEEEIKERYENFCKHN [L16R] | 2.71 |
| FSFRYQQELEEEIKELYENDCKHN [F20D] | 2.62 |
| FSFRYQQELEIEIKELYENFCKHN [E11I] | 2.11 |
| FSFREQQELEEEIKELYENFCKHN [Y5E] | 3.07 |
| FSFRYQQELEEEIKELYENFCKHA [N24A] | 2.37 |
| FSFRYQQELEEEIKELYENFCKHM [N24M] | 2.49 |
| FSFRYQQELEEEIKELYENFCKDN [H23D] | 2.12 |
| FSFRYQQELEEEIKELYECFCKHN [N19C] | 2.02 |
| FSFRYQQELEEEIKELYENFEKHN [C21E] | 3.12 |
| FSFRYQQELEEEIKELYENFCFHN [K22F] | 2.08 |
| FSFRYQQQLEEEIKELYENFCKHN [E8Q] | 2.02 |
| FSFRYQQELEEEIKELSENFCKHN [Y17S] | 3.49 |
| FSFRYQQEEEEEIKELYENFCKHN [L9E] | 2.11 |
| FSFRYQNELEEEIKELYENFCKHN [Q7N] | 2.51 |
